# system: HM74A (Homo sapiens, UniProt Q8TDS4)
# Sequence (Q8TDS4 whole entry): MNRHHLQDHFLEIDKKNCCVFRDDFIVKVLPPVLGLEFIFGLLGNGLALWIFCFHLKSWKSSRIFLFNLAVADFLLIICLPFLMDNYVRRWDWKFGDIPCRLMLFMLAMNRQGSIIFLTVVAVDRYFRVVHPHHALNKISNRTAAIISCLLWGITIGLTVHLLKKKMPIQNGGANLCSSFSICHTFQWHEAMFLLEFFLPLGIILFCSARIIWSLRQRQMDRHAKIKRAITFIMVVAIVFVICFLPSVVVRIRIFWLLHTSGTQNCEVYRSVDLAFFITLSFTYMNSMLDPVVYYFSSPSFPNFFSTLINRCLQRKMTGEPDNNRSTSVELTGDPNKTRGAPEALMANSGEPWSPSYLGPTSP
# method.notes: Secondary fluorescent calcium indicator assay (FLIPR)
# protocol.conditions: stable transfected HEK-293 cells expressing HM74A and chimeric G protein Gqi9; % stimulation of maximal nicotinic acid response (100 μM)
pEC50: −log10 of the molar value.
quantity: pEC50

a = O=C(Nc1ccccc1C(=O)O)c1ccc(Oc2cc(F)ccc2F)cc1
b = O=C(Nc1ccccc1C(=O)O)c1ccc(Oc2cccc(Cl)c2)cc1
// pick min by pEC50: a , b Mark your answer with the label of the selected entry.
b
(b: 6.28, a: 7.00)
